Data origin, for the record: patent US8022206B2

target: RON (human) (Homo sapiens); test: RON (human) AlphaScreen kinase assay, Km of ATP; assay type: biochemical; conditions: AlphaScreen, Km of ATP; read-out: RON biochemical IC50
Sequence (Q04912 25-1400): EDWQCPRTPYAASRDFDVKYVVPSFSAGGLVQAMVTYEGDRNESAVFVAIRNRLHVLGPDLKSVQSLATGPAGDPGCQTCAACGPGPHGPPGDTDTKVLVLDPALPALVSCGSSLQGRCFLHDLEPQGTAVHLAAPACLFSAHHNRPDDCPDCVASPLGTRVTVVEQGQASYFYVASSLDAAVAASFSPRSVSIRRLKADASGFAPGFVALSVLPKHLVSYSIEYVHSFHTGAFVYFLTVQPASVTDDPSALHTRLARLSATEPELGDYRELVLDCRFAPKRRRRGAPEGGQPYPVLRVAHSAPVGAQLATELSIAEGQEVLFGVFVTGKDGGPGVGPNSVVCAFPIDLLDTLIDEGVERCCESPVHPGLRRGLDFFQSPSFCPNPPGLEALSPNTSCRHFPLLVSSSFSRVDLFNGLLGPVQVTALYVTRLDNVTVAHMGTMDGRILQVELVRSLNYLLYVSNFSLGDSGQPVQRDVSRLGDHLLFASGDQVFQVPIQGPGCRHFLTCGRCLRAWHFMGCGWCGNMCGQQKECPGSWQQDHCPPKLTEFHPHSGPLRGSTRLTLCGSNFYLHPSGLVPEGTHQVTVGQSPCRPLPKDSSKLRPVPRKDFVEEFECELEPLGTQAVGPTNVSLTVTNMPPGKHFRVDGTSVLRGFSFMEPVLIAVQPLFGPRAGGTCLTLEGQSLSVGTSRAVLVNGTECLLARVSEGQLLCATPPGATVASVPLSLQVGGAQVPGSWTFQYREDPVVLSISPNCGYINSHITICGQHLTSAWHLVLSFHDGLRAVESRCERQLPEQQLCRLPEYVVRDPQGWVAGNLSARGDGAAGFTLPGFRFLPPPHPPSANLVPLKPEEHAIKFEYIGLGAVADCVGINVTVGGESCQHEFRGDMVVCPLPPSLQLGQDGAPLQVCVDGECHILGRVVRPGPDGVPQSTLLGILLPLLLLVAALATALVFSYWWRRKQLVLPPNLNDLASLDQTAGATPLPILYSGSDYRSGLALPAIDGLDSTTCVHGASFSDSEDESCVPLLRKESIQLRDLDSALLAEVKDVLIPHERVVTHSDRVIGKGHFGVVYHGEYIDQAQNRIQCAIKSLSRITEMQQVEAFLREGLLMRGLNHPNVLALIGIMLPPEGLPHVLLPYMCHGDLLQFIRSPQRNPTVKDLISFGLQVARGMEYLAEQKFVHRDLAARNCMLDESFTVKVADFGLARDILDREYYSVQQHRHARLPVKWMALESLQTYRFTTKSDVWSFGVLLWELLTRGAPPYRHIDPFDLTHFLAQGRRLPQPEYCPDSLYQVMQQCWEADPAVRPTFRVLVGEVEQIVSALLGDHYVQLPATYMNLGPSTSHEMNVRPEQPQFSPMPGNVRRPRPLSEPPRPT
pIC50: −log10 of the molar value.
Some compounds, each annotated with its measured pIC50.

- compound: "C[C@@H](Oc1c(N)ncc2c(-c3cnn(C4CCNCC4)c3)coc12)c1ccccn1"
  target entity: "RON (human) (Homo sapiens)"
  pIC50: "5.30 to 6.30"
- compound: "CCNC(=O)N1CCC(n2cc(-c3coc4c(O[C@H](C)c5c(Cl)ccc(F)c5Cl)c(N)ncc34)cn2)CC1"
  target entity: "RON (human) (Homo sapiens)"
  pIC50: "5.30 to 6.30"
- compound: "COC(=O)c1coc2c(O[C@H](C)c3c(Cl)ccc(F)c3Cl)c(N)ncc12"
  target entity: "RON (human) (Homo sapiens)"
  pIC50: "4.70 to 5.30"
- compound: "CC(Cc1cccc(Br)c1)Oc1c(N)ncc2c(-c3cnn(C4CCNCC4)c3)coc12 (stereo not drawn)"
  target entity: "RON (human) (Homo sapiens)"
  pIC50: "> 6.30"

Requested field: pIC50. Item: C[C@@H](Oc1c(N)ncc2c(-c3cnn(C4CCN(C(N)=O)CC4)c3)coc12)c1c(Cl)ccc(F)c1Cl
5.30 to 6.30

Name the reported pIC50 value associated with the compound C[C@@H](Oc1c(N)ncc2c(-c3cnc(N4CCOCC4)nc3)coc12)c1c(Cl)ccc(F)c1Cl
5.30 to 6.30

Look at this compound and give its reported pIC50. C[C@@H](Oc1c(N)ncc2c(-c3ccc(C(=O)NCCN(C)C)cc3)coc12)c1c(Cl)ccc(F)c1Cl
> 6.30

Suppose we examine the compound CC(Cc1c(Cl)cccc1Cl)Oc1c(N)ncc2c(-c3cnn(C4CCNCC4)c3)coc12 (stereo not drawn) ; what pIC50 value has been reported?
5.30 to 6.30
